system: Rattus norvegicus; assay: Central dopamine receptor stimulating activity in Sprague-Dawley rat assessed as reduction in DOPA accumulation in limbic region of brain at 2 umol/kg, sc by spectrophotometric method; assay type: functional; details: Limbic system
assay-metric: ED50

molecule	assay-metric	endpoint-result
CCCN(CC(C)(C)C)C1CCc2c(cccc2OC)C1.Cl (stereo not drawn)	ED50	0.19 µmol/kg
CN1CCc2cccc3c2[C@H]1Cc1ccc(O)c(O)c1-3 [APOMORPHINE]	ED50	0.19 µmol/kg
CCCN(CC(C)(C)C)C1CCc2c(O)cccc2C1.Cl (stereo not drawn)	ED50	0.2 µmol/kg
CCCN(CCc1ccccc1)C1CCc2c(cccc2OC)C1.Cl (stereo not drawn)	ED50	0.29 µmol/kg
CCCCCN(CCC)C1CCc2c(cccc2OC)C1.O=C(O)C(=O)O (stereo not drawn)	ED50	0.092 µmol/kg
COc1cccc2c1CCC(NC(C)C)C2.Cl (stereo not drawn)	ED50	> 5 µmol/kg
Br.NC1CCc2c(O)cccc2C1 (stereo not drawn)	ED50	> 5 µmol/kg
Br.CCCNC1CCc2c(O)cccc2C1 (stereo not drawn)	ED50	0.04 µmol/kg
Br.CCCCN(CCCC)C1CCc2c(O)cccc2C1 (stereo not drawn)	ED50	2.9 µmol/kg
Br.CC(C)NC1CCc2c(O)cccc2C1 (stereo not drawn)	ED50	> 5 µmol/kg
CCCN(C)C1CCc2c(cccc2OC)C1.Cl (stereo not drawn)	ED50	0.12 µmol/kg
Br.CCCCCNC1CCc2c(O)cccc2C1 (stereo not drawn)	ED50	> 5 µmol/kg
CCCN(CCc1ccccc1)C1CCc2c(O)cccc2C1.Cl (stereo not drawn)	ED50	0.022 µmol/kg
